Consider the following compounds and their measured melting point readings.

>  <COMPOUND>
O=C(Nc1ccc2c(c1)CCC(CN1CCCC1)=C2)c1ccc(-c2ccc(F)cc2F)nc1

>  <MEASURED_VALUE>
169 to 170 °C

$$$$
>  <COMPOUND>
CN(C)CC1CCc2cc(NC(=O)c3ccc4c(c3)C(=O)c3ccccc3-4)ccc2C1 (centres unmarked)

>  <MEASURED_VALUE>
224 to 226 °C

$$$$
>  <COMPOUND>
N#CC1=C(CN2CCCC2)CCc2cc(NC(=O)c3ccc(-c4ccc(Cl)cc4)cc3)ccc21

>  <MEASURED_VALUE>
191 to 192 °C

$$$$
>  <COMPOUND>
O=C(Nc1ccc2c(c1)CCC(CN1CCCC1)=C2)N1CC=C(c2ccc(F)cc2)CC1

>  <MEASURED_VALUE>
206 to 207 °C

$$$$
>  <COMPOUND>
CN(C)CC1CCc2cc(NC(=O)c3ccc(-c4ccc(-c5ccccc5)cc4)cc3)ccc2C1.Cl (centres unmarked)

>  <MEASURED_VALUE>
220 °C (dec.)

$$$$
>  <COMPOUND>
COc1ccc(CC(=O)Nc2ccc(CC(=O)NCCN(C)C)cc2)cc1OC

>  <MEASURED_VALUE>
123 to 124 °C

$$$$

Data request: Please look up its melting point: CN(C)CCNC(=O)Cc1ccc(NC(=O)c2ccc(OCc3ccc(-c4ccccc4)cc3)cc2)cc1
Data returned: 204 to 208 °C

Data request: Repeat with O=C(Nc1ccc2c(c1)CCC(CN1CCCC1)C2)c1ccc(-c2ccc(F)cc2)cc1 (centres unmarked)
Data returned: 185 to 189 °C

* * *

MEASURED_QUANTITY: melting point

Consider the worked cases shown below.
>  <COMPOUND>
CN(C)CC1=Cc2ccc(C(=O)Nc3ccc(Br)cc3)cc2CC1

>  <melting point>
175 to 179 °C

$$$$
>  <COMPOUND>
CN(C)CC1CCc2cc(NC(=O)c3ccc(OCc4ccccc4)cc3)ccc2C1 (stereo not drawn)

>  <melting point>
135 to 136 °C

$$$$
>  <COMPOUND>
CCc1ccc(-c2ccc(C(=O)Nc3ccc4c(c3)CCC(CN(C)C)C4)cc2)cc1 (stereo not drawn)

>  <melting point>
137 to 138 °C

$$$$
>  <COMPOUND>
CN(C)CC1CCc2cc(NC(=O)N3CCC(c4ccc(F)cc4)CC3)ccc2C1O (stereo not drawn)

>  <melting point>
160 to 163 °C

$$$$

Data request: Please look up its melting point: CN(C)CC1CCc2cc(NC(=O)c3ccc(-c4cccnc4)cc3)ccc2C1 (stereo not drawn)
Data returned: 177 to 178 °C

Data request: Repeat with CCC1=C(CN(C)C)CCc2cc(NC(=O)c3ccc(-c4ccc(Cl)cc4)cc3)ccc21
Data returned: 201 to 204 °C

Data request: Repeat with Cl.O=C(Nc1ccc(C(O)C2CCCNC2)cc1)c1ccc(-c2ccc(Cl)cc2)cc1 (stereo not drawn)
Data returned: 195 °C (dec.)

Data request: Repeat with CN(C)CCNC(=O)Cc1ccc(NC(=O)CCCc2c[nH]c3ccccc23)cc1
Data returned: 132 to 133 °C

Data request: Repeat with CN(C)CC1=Cc2ccc(NC(=O)c3ccc(-c4ccc(F)cc4)nc3)cc2CC1
Data returned: 216 to 219 °C
